// data source = patent US6423376B1

Would you kindly list initial foam for each of these compounds?
experiment: Foam test based upon ASTM D 1173-53; assay type: physicochemical; conditions: 0.1 wt % solution
Write it as a number; the unit cm goes unstated.

# input Give initial foam for CCCCCOC(=O)C(O)C(O)C(=O)OCCCCC (racemic) [Example 5, Dipentyl-DL-tartrate]
# output 0

# input Give initial foam for CC(C)COC(=O)C(O)C(O)C(=O)OCC(C)C (racemic) [Example 3, Diisobutyl-DL-tartrate]
# output 0.5

# input Give initial foam for CCC(C)OC(=O)C(O)C(O)C(=O)OC(C)CC (racemic) [Example 4, Di-sec-butyl-DL-tartrate]
# output 1.7
